- TARGET: Kras and SOS1 (biotin-tagged human Kras loaded with GDP, His-tagged human SOS1) (Homo sapiens, UniProt P01116, G12D)
- Construct: made in house; host or cells: E. coli (stated for Kras only)
- Sequence (P01116 1-188 isoform P01116-2 G12D): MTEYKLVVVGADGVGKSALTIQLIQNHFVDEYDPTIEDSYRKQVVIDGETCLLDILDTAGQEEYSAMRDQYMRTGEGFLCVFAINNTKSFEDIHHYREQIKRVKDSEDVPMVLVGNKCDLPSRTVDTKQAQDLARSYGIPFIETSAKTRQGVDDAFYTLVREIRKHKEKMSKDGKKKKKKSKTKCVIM
- ASSAY_PROCEDURE: Protein-protein interaction inhibition between Kras and SOS1 (KrasGl2D-SOS PPI) using AlphaScreen
- Format: binding
- EXPERIMENTAL_PARAMETERS: AlphaScreen; biotin-tagged human Kras loaded with GDP, His-tagged human SOS1; read-out: KRAS G12D-SOS PPI IC50
Starred links: 1 amine or outer side, 2 acyl side, 3 side chain; linkers in the order of their positions; H or OH if unused. Positions of bridges follow the written chain, without caps; N, C: chain ends. Non-standard residues stand in square brackets, D forms with d. Residues, ends and D or L forms follow the SMILES beside them. *: point of attachment. hPhe(3-Cl-4-CF3) = N[C@@H](CCc1ccc(C(F)(F)F)c(Cl)c1)C(=O)O; hPhe(4-CF3) = N[C@@H](CCc1ccc(C(F)(F)F)cc1)C(=O)O; NMePhe(3-CN) = CN[C@@H](Cc1cccc(C#N)c1)C(=O)O; NMePhe(4-Cl) = CN[C@@H](Cc1ccc(Cl)cc1)C(=O)O; NMeNle(6-CHF2) = CN[C@@H](CCCCC(F)F)C(=O)O; NMedβ3hAla = C[C@H](CC(=O)[*:2])N(C)[*:1]; NMeL = CN[C@@H](CC(C)C)C(=O)O; NMeV = CN[C@H](C(=O)O)C(C)C; NMeA = CN[C@@H](C)C(=O)O; Pyrrolidide = C1CCN(*)C1; Ac5c = NC1(C(=O)O)CCCC1; Sar = CNCC(=O)O
Reported IC50 values follow for various molecules

{"MOLECULE": "CC[C@H](C)[C@@H]1NC(=O)[C@H](C)N(C)C(=O)C[C@@H](C(=O)N2CCCC2)NC(=O)[C@H](CC(C)C)N(C)C(=O)[C@H](CCCCC(F)F)N(C)C(=O)[C@H](CC(C)C)NC(=O)[C@H](CCc2ccc(C(F)(F)F)cc2)NC(=O)CN(C)C(=O)[C@H](Cc2ccc(Cl)cc2)N(C)C(=O)CN(C)C(=O)CN(C)C1=O [Compound 779] ([NMeA]I[Sar][Sar][NMePhe(4-Cl)][Sar][hPhe(4-CF3)]L[NMeNle(6-CHF2)][NMeL]D-Pyrrolidide; lactam N-11)", "UNIT_DESCRIPTOR": "nM", "IC50": 160}
{"MOLECULE": "CC[C@H](C)[C@@H]1NC(=O)[C@H](CC(C)C)N(C)C(=O)C[C@@H](C)N(C)C(=O)[C@H](C(C)C)N(C)C(=O)C2(CCCC2)NC(=O)[C@@H]2CCCN2C(=O)[C@H](CCc2ccc(C(F)(F)F)c(Cl)c2)NC(=O)CN(C)C(=O)[C@H](Cc2cccc(C#N)c2)N(C)C(=O)CN(C)C(=O)CN(C)C1=O [Compound 238] (cyclo([Ac5c][NMeV][NMedβ3hAla][NMeL]I[Sar][Sar][NMePhe(3-CN)][Sar][hPhe(3-Cl-4-CF3)]P))", "UNIT_DESCRIPTOR": "nM", "IC50": 12}

###

- TARGET: Kras and SOS1 (biotin-tagged human Kras loaded with GDP, His-tagged human SOS1) (Homo sapiens, UniProt P01116, G12D)
- Construct: made in house; host or cells: E. coli (stated for Kras only)
- ASSAY_PROCEDURE: Protein-protein interaction inhibition between Kras and SOS1 (KrasGl2D-SOS PPI) using AlphaScreen
- Format: binding
- EXPERIMENTAL_PARAMETERS: AlphaScreen; biotin-tagged human Kras loaded with GDP, His-tagged human SOS1; read-out: KRAS G12D-SOS PPI IC50
Positions of bridges follow the written chain, without caps; N, C: chain ends. Non-standard residues stand in square brackets, D forms with d. Residues, ends and D or L forms follow the SMILES beside them. *: point of attachment. hPhe(3-Cl-4-CF3) = N[C@@H](CCc1ccc(C(F)(F)F)c(Cl)c1)C(=O)O; NMePhe(2-Cl) = CN[C@@H](Cc1ccccc1Cl)C(=O)O; NMeAla(cPent) = CN[C@@H](CC1CCCC1)C(=O)O; Pro(4,4-F2) = O=C(O)[C@@H]1CC(F)(F)CN1; NMeCha = CN[C@@H](CC1CCCCC1)C(=O)O; NMeChg = CN[C@H](C(=O)O)C1CCCCC1; NMeT = CN[C@H](C(=O)O)[C@@H](C)O; NMeD = CN[C@@H](CC(=O)O)C(=O)O; Benzyl(4-Cl) = Clc1ccc(C*)cc1; NMeL = CN[C@@H](CC(C)C)C(=O)O; NMeV = CN[C@H](C(=O)O)C(C)C; Morpholide = C1CN(*)CCO1; NMeA = CN[C@@H](C)C(=O)O; Piperidide = C1CCN(*)CC1; Pyrrolidide = C1CCN(*)C1; Ac5c = NC1(C(=O)O)CCCC1; Aze = O=C(O)[C@@H]1CCN1; Sar = CNCC(=O)O
VALUE_TYPE: log10(IC50) (log10 of the value in nM)

{"MOLECULE": "CC[C@H](C)[C@@H]1NC(=O)[C@H](CC(C)C)N(C)C(=O)C[C@@H](C(=O)N2CCCCC2)N(C)C(=O)[C@H](C(C)C)N(C)C(=O)C2(CCCC2)NC(=O)[C@@H]2CCCN2C(=O)[C@H](CCc2ccc(C(F)(F)F)c(Cl)c2)NC(=O)CN(C)C(=O)[C@H](CC2CCCC2)N(C)C(=O)[C@@H]2CCN2C(=O)[C@H](C)N(C)C1=O [Compound 1739] ([NMeL]I[NMeA][Aze][NMeAla(cPent)][Sar][hPhe(3-Cl-4-CF3)]P[Ac5c][NMeV][NMeD]-Piperidide; lactam N-11)", "log10(IC50)": 0.67}
{"MOLECULE": "CC[C@H](C)[C@@H]1NC(=O)[C@H](C)N(C)C(=O)C[C@@H](C(=O)N2CCCC2)N(C)C(=O)[C@H](C(C)C)N(C)C(=O)[C@@H](C)NC(=O)[C@H](Cc2ccccc2Cl)N(C)C(=O)[C@H](CCc2ccc(C(F)(F)F)c(Cl)c2)NC(=O)CN(C)C(=O)[C@H](CC2CCCCC2)N(C)C(=O)CN(C)C(=O)CN(C)C1=O [Compound 702] ([NMeA]I[Sar][Sar][NMeCha][Sar][hPhe(3-Cl-4-CF3)][NMePhe(2-Cl)][dA][NMeV][NMeD]-Pyrrolidide; lactam N-11)", "log10(IC50)": 2.11}
{"MOLECULE": "CC[C@H](C)[C@@H]1NC(=O)[C@H](CC(C)C)N(C)C(=O)C[C@@H](C(=O)N2CCCCC2)N(C)C(=O)[C@H]([C@@H](C)OC)N(C)C(=O)C2(CCCC2)NC(=O)[C@@H]2CCCN2C(=O)[C@H](CCc2ccc(C(F)(F)F)c(Cl)c2)NC(=O)CN(C)C(=O)[C@H](CC2CCCCC2)N(C)C(=O)CN(C)C(=O)CN(C)C1=O [Compound 1101] ([NMeL]I[Sar][Sar][NMeCha][Sar][hPhe(3-Cl-4-CF3)]P[Ac5c][NMeT](Me)[NMeD]-Piperidide; lactam N-11)", "log10(IC50)": 0.95}
{"MOLECULE": "CC[C@H](C)[C@@H]1NC(=O)[C@H](CC(C)C)N(C)C(=O)C[C@@H](C(=O)N2CCOCC2)N(C)C(=O)[C@H](C2CCCCC2)N(C)C(=O)C2(CCCC2)NC(=O)[C@@H]2CC(F)(F)CN2C(=O)[C@H](CCc2ccc(C(F)(F)F)c(Cl)c2)NC(=O)CN(C)C(=O)[C@H](CC2CCCCC2)N(C)C(=O)CN(C)C(=O)CN(C)C1=O [Compound 1194] ([NMeL]I[Sar][Sar][NMeCha][Sar][hPhe(3-Cl-4-CF3)][Pro(4,4-F2)][Ac5c][NMeChg][NMeD]-Morpholide; lactam N-11)", "log10(IC50)": -0.28}
{"MOLECULE": "CC[C@H](C)[C@@H]1NC(=O)[C@H](C)N(C)C(=O)C[C@@H](C(=O)N2CCCCC2)N(C)C(=O)[C@H](C2CCCCC2)N(C)C(=O)C2(CCCC2)NC(=O)[C@@H]2CCCN2C(=O)[C@H](COCc2ccc(Cl)cc2)NC(=O)CN(C)C(=O)[C@H](CC2CCCCC2)N(C)C(=O)CN(C)C(=O)CN(C)C1=O [Compound 2044] ([NMeA]I[Sar][Sar][NMeCha][Sar]S(Benzyl(4-Cl))P[Ac5c][NMeChg][NMeD]-Piperidide; lactam N-11)", "log10(IC50)": 0.90}
